In this section, each of the compounds is paired with its reported EC50.
system: sub-genomic HCV NS3-NS5B replicon genotype 1a C316Y (Huh-7 cells); assay: Replicon luciferase cell based assay, genotype 1a C316Y; settings: Hepatitis C virus, Huh-7, 48 h, read-out: EC50 1a 316Y

Known results for compounds:
INSERT INTO results (compound_structure_string, measured_endpoint, recorded_value) VALUES
  ('CNC(=O)c1c(-c2ccc(F)cc2)oc2cc(N(c3ccc(OCB(O)O)c(Cl)c3)S(C)(=O)=O)c(C3CC3)cc12', 'EC50', '1 to 10 nM'),
  ('CNC(=O)c1c(-c2ccc(F)cc2)oc2cc(N(c3ccc(B(O)O)c(F)c3)S(C)(=O)=O)c(C3CC3)cc12', 'EC50', '11 to 200 nM');

Shift focus to the following entry.
Data request, read-out EC50, for CNC(=O)c1c(-c2ccc(F)cc2)oc2cc(N(c3ccc(B(O)O)c(C(F)F)c3)S(C)(=O)=O)c(C3CC3)cc12 11 to 200 nM
